- Protocol: Drug uptake in lysosomes of human HeLa cells transfected with Cerulean-Lamp-1 plasmid at 1 uM after 1 hr by fluorescence microscopy
- Assay type: ADME, cell-based, Lysosome
*1 amine or outer side, *2 acyl side, *3 side chain or, on linkers, in order; H or OH if unused. Where a SMILES comes first, the peptide text is derived from it. The star is where a group is joined. 5TAMRA = CN(C)c1ccc2c(c1)Oc1cc(N(C)C)ccc1C21OC(=O)c2cc(C(=O)*)ccc21; Cysteamine = C(CS[*:2])N[*:1]

Compound | Drug uptake
CN(C)c1ccc2c(c1)Oc1cc(N(C)C)ccc1C21OC(=O)c2cc(C(=O)N[C@@H](CCCNC(=N)N)C(=O)N[C@@H](CCCNC(=N)N)C(=O)N[C@@H](CCCNC(=N)N)C(=O)N[C@@H](CCC(N)=O)C(=O)N[C@@H](CCCNC(=N)N)C(=O)N[C@@H](CCCNC(=N)N)C(=O)N[C@@H](CS)C(=O)N[C@@H](CS)C(=O)N[C@@H](CCCNC(=N)N)C(=O)NCC(=O)N[C@@H](Cc3ccc(O)cc3)C(=O)O)ccc21 (5TAMRA-RRRQRRCCRGY-OH) | Not Active
CN(C)c1ccc2c(c1)Oc1cc(N(C)C)ccc1C21OC(=O)c2cc(C(=O)N[C@@H](CCCNC(=N)N)C(=O)N[C@@H](CCCNC(=N)N)C(=O)N[C@@H](CCCNC(=N)N)C(=O)N[C@@H](CCC(N)=O)C(=O)N[C@@H](CCCNC(=N)N)C(=O)N[C@@H](CCCNC(=N)N)C(=O)N[C@@H](CS)C(=O)N[C@@H](CSSCCN)C(=O)N[C@@H](CCCNC(=N)N)C(=O)NCC(=O)N[C@@H](Cc3ccc(O)cc3)C(=O)O)ccc21 (5TAMRA-RRRQRRCC(Cysteamine)RGY-OH) | Not Active
CN(C)c1ccc2c(c1)Oc1cc(N(C)C)ccc1C21OC(=O)c2cc(C(=O)N[C@@H](CCCNC(=N)N)C(=O)N[C@@H](CCCNC(=N)N)C(=O)N[C@@H](CCCNC(=N)N)C(=O)N[C@@H](CCC(N)=O)C(=O)N[C@@H](CCCNC(=N)N)C(=O)N[C@@H](CCCNC(=N)N)C(=O)N[C@@H](CSSCCN)C(=O)N[C@@H](CS)C(=O)N[C@@H](CCCNC(=N)N)C(=O)NCC(=O)N[C@@H](Cc3ccc(O)cc3)C(=O)O)ccc21 (5TAMRA-RRRQRRC(Cysteamine)CRGY-OH) | Not Active
